Numbers sourced from paper PMC8777613.

We begin with a simple list: items and their reported viability at 10 µM.
Test system: human prostate cancer cells (PC3)
Test: MTT dye reduction viability test, PC3
Type: cell-based
Conditions: Homo sapiens; PC3, 10 µM, 72 h, representative MTT result (Table S1 A)
Reply numerically in %, unit not repeated.

Recorded viability at 10 µM, per entry:
INSERT INTO results (compound, measurement_name, result_value) VALUES
  ('O=c1cc(-c2ccccc2)oc2ccc(O)cc12 [Compound 13, 6-Hydroxy-Flavone, reference compound]', 'viability at 10 µM', 89.4),
  ('CCCCCCCCCCCCCCCCCC(=O)Oc1ccc2c(c1)C(=O)CC(c1ccccc1)O2 (stereo not shown) [6-Stearic-Flavanone, 6-hydroxy-flavanone stearic ester]', 'viability at 10 µM', 96.5),
  ('CCCCCCCCC=CCCCCCCCC(=O)Oc1ccc2c(c1)C(=O)CC(c1ccccc1)O2 (stereo not shown) [6-Oleic-Flavanone, 6-hydroxy-flavanone oleic ester]', 'viability at 10 µM', 100),
  ('CCC=CCC=CCC=CCCCCCCCC(=O)Oc1ccc2c(=O)cc(-c3ccccc3)oc2c1 [7-Linolenic-Flavone, 7-hydroxy-flavone linolenic ester]', 'viability at 10 µM', 90.2),
  ('O=C1CC(c2ccccc2)Oc2ccc(O)cc21 (stereo not shown) [6-Hydroxy-Flavanone, 6-hydroxy-flavanone, reference compound]', 'viability at 10 µM', 96.4);

Q: Complete the entry with viability at 10 µM for CCCCCCCCCCCCCCCCCC(=O)Oc1ccc2c(=O)cc(-c3ccccc3)oc2c1 [7-Stearic-Flavone, 7-hydroxy-flavone stearic ester]
Ans: 100

Q: Complete the entry with viability at 10 µM for O=c1cc(-c2ccccc2)oc2cc(O)ccc12 [7-Hydroxy-Flavone, 7-hydroxy-flavone, reference compound]
Ans: 123

* * *

We begin with a simple list: items and their reported viability at 40 µM.
System: human prostate cancer cells (PC3)
Assay: MTT dye reduction viability test, PC3
Format: cell-based
Settings: Homo sapiens; PC3, 40 µM, 72 h, representative MTT result (Table S1 A)
Reply numerically in %, unit not repeated.

INSERT INTO assay_data (molecule, result_value) VALUES
  ('CCCCCCCCCCCCCCCCCC(=O)Oc1ccc2c(=O)cc(-c3ccccc3)oc2c1 [7-Stearic-Flavone, 7-hydroxy-flavone stearic ester]', 41.8);

Q: Complete the entry with viability at 40 µM for O=c1cc(-c2ccccc2)oc2cc(O)ccc12 [7-Hydroxy-Flavone, 7-hydroxy-flavone, reference compound]
Ans: 111

Q: Complete the entry with viability at 40 µM for O=c1cc(-c2ccccc2)oc2ccc(O)cc12 [Compound 13, 6-Hydroxy-Flavone, reference compound]
Ans: 99

Q: Complete the entry with viability at 40 µM for O=C1CC(c2ccccc2)Oc2ccc(O)cc21 (stereo not shown) [6-Hydroxy-Flavanone, 6-hydroxy-flavanone, reference compound]
Ans: 96

Q: Complete the entry with viability at 40 µM for CCC=CCC=CCC=CCCCCCCCC(=O)Oc1ccc2c(=O)cc(-c3ccccc3)oc2c1 [7-Linolenic-Flavone, 7-hydroxy-flavone linolenic ester]
Ans: 81.7

Q: Complete the entry with viability at 40 µM for CCCCCCCCC=CCCCCCCCC(=O)Oc1ccc2c(=O)cc(-c3ccccc3)oc2c1 [7-Oleic-Flavone, 7-hydroxy-flavone oleic ester]
Ans: 48.2

Q: Complete the entry with viability at 40 µM for CCCCCC=CCC=CCCCCCCCC(=O)Oc1ccc2c(c1)C(=O)CC(c1ccccc1)O2 (stereo not shown) [6-Linoleic-Flavanone, 6-hydroxy-flavanone linoleic ester]
Ans: 53.3

* * *

Test: MTT dye reduction viability test, HaCaT
Assay type: cell-based, human
Conditions: human; HaCaT, 100 µM, 72 h, representative MTT result (Table S1 B); read-out: Cells viability
Measurement name: viability at 100 µM (%)
Reply numerically in %, unit not repeated.

Q: Complete the entry with viability at 100 µM for O=c1cc(-c2ccccc2)oc2cc(O)ccc12 [7-Hydroxy-Flavone, 7-hydroxy-flavone, reference compound]
Ans: 92.4

* * *

We begin with a simple list: items and their reported viability at 72 h, 100 µM.
Assay: MTT dye reduction viability test, HaCaT
Format: cell-based, human
Details: human, HaCaT cells (immortal keratinocytes), HaCaT, 100 µM, 72 h, representative MTT result (Table S1 B); read-out: Cells viability
Reply numerically in %, unit not repeated.

INSERT INTO assay_data (compound, unit_annotation, result_value) VALUES
  ('CC=CC=CC(=O)Oc1ccc2c(c1)C(=O)CC(c1ccccc1)O2 (stereo not drawn) [6-Sorbic-Flavanone, 6-hydroxy-flavanone sorbic ester]', '%', 31.4),
  ('O=C1CC(c2ccccc2)Oc2ccc(O)cc21 (stereo not drawn) [6-Hydroxy-Flavanone, 6-hydroxy-flavanone, reference compound]', '%', 74.4),
  ('CCCCCCCCC=CCCCCCCCC(=O)Oc1ccc2c(c1)C(=O)CC(c1ccccc1)O2 (stereo not drawn) [6-Oleic-Flavanone, 6-hydroxy-flavanone oleic ester]', '%', 26.5),
  ('CCCCCC=CCC=CCCCCCCCC(=O)Oc1ccc2c(=O)cc(-c3ccccc3)oc2c1 [7-Linoleic-Flavone, 7-hydroxy-flavone linoleic ester]', '%', 34),
  ('CCC=CCC=CCC=CCCCCCCCC(=O)Oc1ccc2c(c1)C(=O)CC(c1ccccc1)O2 (stereo not drawn) [6-Linolenic-Flavanone, 6-hydroxy-flavanone linolenic ester]', '%', 23.8);

Now consider a different compound.
Q: Complete the entry with viability at 72 h, 100 µM for CCCCCCCCCCCCCCCCCC(=O)Oc1ccc2c(=O)cc(-c3ccccc3)oc2c1 [7-Stearic-Flavone, 7-hydroxy-flavone stearic ester]
Ans: 20.7

* * *

Experiment: MTT dye reduction viability test, HaCaT
Assay type: cell-based, human
Settings: human; HaCaT, 60 µM, 72 h, representative MTT result (Table S1 B); read-out: Cells viability
Measurement name: viability at 60 µM
# output: number + unit

Q: Complete the entry with viability at 60 µM for O=c1cc(-c2ccccc2)oc2cc(O)ccc12 [7-Hydroxy-Flavone, 7-hydroxy-flavone, reference compound]
Ans: 96.2%

* * *

Assay: MTT dye reduction viability test, HaCaT
Format: cell-based, human
Settings: human, HaCaT cells (immortal keratinocytes), HaCaT, 10 µM, 72 h, representative MTT result (Table S1 B)
Measurement name: viability at 72 h, 10 µM (%)
Reply numerically in %, unit not repeated.

Recorded viability at 72 h, 10 µM, per entry:
INSERT INTO results (compound, unit_annotation, result_value) VALUES
  ('CCC=CCC=CCC=CCCCCCCCC(=O)Oc1ccc2c(c1)C(=O)CC(c1ccccc1)O2 (stereo not drawn) [6-Linolenic-Flavanone, 6-hydroxy-flavanone linolenic ester]', '%', 95.8),
  ('CCC=CCC=CCC=CCCCCCCCC(=O)Oc1ccc2c(=O)cc(-c3ccccc3)oc2c1 [7-Linolenic-Flavone, 7-hydroxy-flavone linolenic ester]', '%', 106),
  ('O=c1cc(-c2ccccc2)oc2ccc(O)cc12 [Compound 13, 6-Hydroxy-Flavone, reference compound]', '%', 96.4),
  ('CCCCCCCCC=CCCCCCCCC(=O)Oc1ccc2c(=O)cc(-c3ccccc3)oc2c1 [7-Oleic-Flavone, 7-hydroxy-flavone oleic ester]', '%', 95.3),
  ('CCCCCCCCC=CCCCCCCCC(=O)Oc1ccc2c(c1)C(=O)CC(c1ccccc1)O2 (stereo not drawn) [6-Oleic-Flavanone, 6-hydroxy-flavanone oleic ester]', '%', 97.8);

Now consider a different compound.
Q: Complete the entry with viability at 72 h, 10 µM for O=C1CC(c2ccccc2)Oc2ccc(O)cc21 (stereo not drawn) [6-Hydroxy-Flavanone, 6-hydroxy-flavanone, reference compound]
Ans: 99.7

* * *

Tested on: human prostate cancer cells (PC3)
Experiment: MTT dye reduction viability test, PC3
Type: cell-based
Conditions: Homo sapiens; PC3, 20 µM, 72 h, representative MTT result (Table S1 A)
Procedure: We have chosen two types of cell culture lines: human prostate cancer cells (PC3) and normal human immortal keratinocyte cells (HaCaT) (Table 1). […] To assess the cells growth inhibition, the MTT dye reduction test was preformed based on the method described by Präbst et al.. […] The optical density was measured with an UVM 340 (ASYS Hitech GmbH, Austria) microplate reader at 570 nm. Replicates of three wells for each dosage, including vehicle control, were analyzed for each experiment. […]
Measurement name: viability at 20 µM (%)
Reply numerically in %, unit not repeated.

Recorded viability at 20 µM, per entry:
INSERT INTO results (compound, result_value) VALUES
  ('CCC=CCC=CCC=CCCCCCCCC(=O)Oc1ccc2c(=O)cc(-c3ccccc3)oc2c1 [7-Linolenic-Flavone, 7-hydroxy-flavone linolenic ester]', 86.3),
  ('CCCCCC=CCC=CCCCCCCCC(=O)Oc1ccc2c(=O)cc(-c3ccccc3)oc2c1 [7-Linoleic-Flavone, 7-hydroxy-flavone linoleic ester]', 70.4),
  ('CCC=CCC=CCC=CCCCCCCCC(=O)Oc1ccc2c(c1)C(=O)CC(c1ccccc1)O2 (stereo not shown) [6-Linolenic-Flavanone, 6-hydroxy-flavanone linolenic ester]', 85.9),
  ('CCCCCCCCC=CCCCCCCCC(=O)Oc1ccc2c(=O)cc(-c3ccccc3)oc2c1 [7-Oleic-Flavone, 7-hydroxy-flavone oleic ester]', 80.8),
  ('CC=CC=CC(=O)Oc1ccc2c(c1)C(=O)CC(c1ccccc1)O2 (stereo not shown) [6-Sorbic-Flavanone, 6-hydroxy-flavanone sorbic ester]', 88.7),
  ('O=c1cc(-c2ccccc2)oc2ccc(O)cc12 [Compound 13, 6-Hydroxy-Flavone, reference compound]', 87.8),
  ('CCCCCCCCCCCCCCCCCC(=O)Oc1ccc2c(=O)cc(-c3ccccc3)oc2c1 [7-Stearic-Flavone, 7-hydroxy-flavone stearic ester]', 87.7),
  ('CCCCCCCCCCCCCCCCCC(=O)Oc1ccc2c(c1)C(=O)CC(c1ccccc1)O2 (stereo not shown) [6-Stearic-Flavanone, 6-hydroxy-flavanone stearic ester]', 106);

Q: Complete the entry with viability at 20 µM for O=c1cc(-c2ccccc2)oc2cc(O)ccc12 [7-Hydroxy-Flavone, 7-hydroxy-flavone, reference compound]
Ans: 117

Q: Complete the entry with viability at 20 µM for CCCCCC=CCC=CCCCCCCCC(=O)Oc1ccc2c(c1)C(=O)CC(c1ccccc1)O2 (stereo not shown) [6-Linoleic-Flavanone, 6-hydroxy-flavanone linoleic ester]
Ans: 76.5
